The measurements presented in this section are drawn from the METLIN SMRT retention time set (Domingo-Almenara et al. 2019).

assay: gradient 5% acetonitrile 3 min, to 50% in 2 min, to 85% in 15 min, held 3 min, 100 µL/min; conditions: column: Zorbax Extend-C18 2.1 x 50 mm; eluents: water / acetonitrile, 0.1% formic acid
Lab note: anything with RP-LC retention time at or over 800 s counts as fulfilled; the rest go in not fulfilled.

1) Cc1csc(-c2cc(S(=O)(=O)Nc3ccc(Cl)cc3)cn2CC(=O)N2CCCC2)n1	fulfilled
2) O=C(NCCn1c(=O)n(Cc2ccccc2)c2cccnc21)c1ccc2c(c1)OCO2	not fulfilled
3) COc1cc(Cl)cc2c1OC=CC(C(=O)Nc1ccc(N3CCOCC3)cc1)=C2	fulfilled
4) O=C(c1noc2c1CCCC2)N1CCc2ccccc2C1	fulfilled
5) CCOc1ccccc1CNC(=O)Cc1csc2nc(-c3ccccc3)cn12	fulfilled
6) CCCC(=O)c1cn(CC(=O)NCc2ccc3c(c2)OCCCO3)c2ccccc12	fulfilled
7) CCCN1C(=O)C2CCC(=O)N2c2ccc(C(=O)Nc3ccc4c(c3)OCCO4)cc21 (centres undefined)	not fulfilled
8) Cn1cc(-c2nc(-c3cccc(Cl)c3)no2)c(=O)c2cc(F)c(N3CCCC3)cc21	not fulfilled
9) O=S(=O)(c1cc(-c2ccno2)cs1)N(Cc1cccs1)C1CCCCC1	fulfilled
10) O=C(Nc1cc(Cl)ccc1F)C1CC(=O)N(c2ccc3c(c2)CCN3C(=O)C2CC2)C1 (centres undefined)	fulfilled
11) CCN1C(=O)COc2ccc(-c3noc(-c4cccc(OC)c4)n3)cc21	fulfilled
